Let's look at some compounds and their measured melting point.

1. COc1ccc2c(c1)OS(=O)(=O)C(C(=O)Nc1cccc(Br)c1)=C2 :: 218 to 220 °C

Query string: Return reported melting point; argument: "COc1ccc(NC(=O)C2=Cc3ccccc3OS2(=O)=O)cc1"
Result string: 231 to 233 °C

Query string: Return reported melting point; argument: "COc1ccc2c(c1)OS(=O)(=O)C=C2"
Result string: 111 to 112 °C

Query string: Return reported melting point; argument: "CC1=CS(=O)(=O)Oc2cc(OCc3ccccc3)ccc21"
Result string: 174 to 175 °C

Query string: Return reported melting point; argument: "CC1=CS(=O)(=O)Oc2cc(OCc3cccc(F)c3)ccc21"
Result string: 214 to 215 °C

Query string: Return reported melting point; argument: "O=[N+]([O-])c1cccc(COc2ccc3c(c2)OS(=O)(=O)c2ccccc2-3)c1"
Result string: 248 to 251 °C

* * *

# tested-system: hCA IX (Homo sapiens, UniProt Q16790)
# Construct: made in house
# procedure-details: stopped-flow CO2 hydrase assay, hCA IX inhibition
# Assay type: biochemical
# condition-context: 6 h incubation of enzyme and inhibitor; mean from 3 different assays, errors 5-10%; read-out: KI (nM) CA IX
reported-metric: Ki

// below: answered compounds
1) O=S1(=O)C=Cc2ccc(OCc3ccc(F)cc3)cc2O1 [Compound 14] :: 22.9 nM
2) O=[N+]([O-])c1ccc(COc2ccc3c(c2)OS(=O)(=O)c2ccccc2-3)cc1 [Compound 30] :: 965 nM
3) O=[N+]([O-])c1cccc(COc2ccc3c(c2)OS(=O)(=O)c2ccccc2-3)c1 [Compound 31] :: 898 nM
4) O=S1(=O)C=Cc2ccc(O)cc2O1 [Compound 11] :: 55.8 nM
5) COc1ccc2c(c1)OS(=O)(=O)C(C(=O)Nc1cccc(Br)c1)=C2 [Compound 45] :: 64400 nM
6) COc1ccc2c(c1)OS(=O)(=O)C(C(=O)O)=C2 [Compound 37] :: 854 nM
7) O=S1(=O)Oc2cc(O)ccc2-c2ccccc21 [Compound 26] :: 559 nM
8) O=S1(=O)Oc2cc(OCc3ccccc3)ccc2-c2ccccc21 [Compound 27] :: 681 nM

Query string: Return reported Ki; argument: COc1ccc2c(c1)OS(=O)(=O)C(C(=O)Nc1ccc(Br)cc1)=C2 [Compound 44]
Result string: 51500 nM

Query string: Return reported Ki; argument: COc1ccc2c(c1)OS(=O)(=O)C=C2C [Compound 10]
Result string: 97.2 nM

Query string: Return reported Ki; argument: O=S1(=O)Oc2cc(OCc3ccc(F)cc3)ccc2-c2ccccc21 [Compound 28]
Result string: 755 nM

Query string: Return reported Ki; argument: COc1cccc(NC(=O)C2=Cc3ccccc3OS2(=O)=O)c1 [Compound 42]
Result string: 5420 nM

Query string: Return reported Ki; argument: CC1=CS(=O)(=O)Oc2cc(OCc3ccccc3)ccc21 [Compound 18]
Result string: 49.8 nM

Query string: Return reported Ki; argument: CCOC(=O)C1=Cc2ccc(OC)cc2OS1(=O)=O [Compound 35]
Result string: 1080 nM

* * *

# tested-system: hCA I (Homo sapiens, UniProt P00915)
# Construct: made in house
# Sequence (P00915 whole entry): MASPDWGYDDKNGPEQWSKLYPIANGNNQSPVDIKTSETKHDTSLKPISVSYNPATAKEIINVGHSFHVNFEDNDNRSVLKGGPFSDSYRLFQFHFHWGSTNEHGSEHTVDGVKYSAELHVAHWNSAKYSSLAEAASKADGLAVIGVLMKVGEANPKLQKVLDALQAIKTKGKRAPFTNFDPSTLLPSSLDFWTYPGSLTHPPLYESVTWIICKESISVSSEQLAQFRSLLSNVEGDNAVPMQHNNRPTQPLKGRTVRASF
# procedure-details: stopped-flow CO2 hydrase assay, hCA I inhibition
# Format: biochemical
# condition-context: 6 h incubation of enzyme and inhibitor; mean from 3 different assays, errors 5-10%; read-out: KI (nM) CA I
reported-metric: Ki

Query string: Return reported Ki; argument: "COc1ccc2c(c1)OS(=O)(=O)C(C(=O)O)=C2"
Result string: 7140 nM

Query string: Return reported Ki; argument: "O=S1(=O)Oc2cc(O)ccc2-c2ccccc21"
Result string: 42600 nM

Query string: Return reported Ki; argument: "CC1=CS(=O)(=O)Oc2cc(OCc3ccc([N+](=O)[O-])cc3)ccc21"
Result string: > 100000 nM

Query string: Return reported Ki; argument: "O=[N+]([O-])c1cccc(COc2ccc3c(c2)OS(=O)(=O)C=C3)c1"
Result string: > 100000 nM

Query string: Return reported Ki; argument: "O=S1(=O)C=Cc2ccc(OCc3cccc(F)c3)cc2O1"
Result string: > 100000 nM

Query string: Return reported Ki; argument: "CCOC(=O)C1=Cc2ccccc2OS1(=O)=O"
Result string: > 100000 nM

Query string: Return reported Ki; argument: "O=[N+]([O-])c1ccc(COc2ccc3c(c2)OS(=O)(=O)c2ccccc2-3)cc1"
Result string: > 100000 nM
